tested on: E. coli DH5α; assay: Antibacterial activity: MIC and growth curve against E. coli DH5α in 96-well plate; type: cell-based; details: minimal inhibitory concentration against E. coli DH5α; 96-well plate, 5×10^5 CFU/mL, 37° C., judged after 8 h
Measured metric: MIC

Example substances with recorded MIC:
{"columns": ["Substance", "MIC"],
 "data": [
  ["PRT431 (DIDECRTIPEACRGDMMCVNQNGGYLCIPRTNPVYRGPYSN; listed as Homo sapiens)", "50 µg/mL"],
  ["PRT1203 (DIDECAEGRHYCRENTMCVNTPGSFMCICKTGYIRIDDYSCT; listed as Homo sapiens)", "25 µg/mL"],
  ["PRT1455 (DWDECVDSAEHDCSPAAWCINLEGSYTCQCRTTRDATPSRAGRACE; listed as Homo sapiens)", "25 µg/mL"],
  ["PRT227 (KGNNCRDSTLCPAYATCTNTVDSYYCACKQGFLSSNGQNHFKDPGVRCK; listed as Homo sapiens)", "12.5 µg/mL"],
  ["PRT1287 (EPCRKLYCLHGICQPNATPGPMCHCEAGWVGLHCD; listed as Homo sapiens)", "50 µg/mL"]
]}

query: Entry PRT453 (DINECEQFGTCPQHCRNTKGSYECVCADGFT; listed as Homo sapiens) has what MIC?
result: 25 µg/mL

query: Entry PRT786 (YGKDCALICQCQNGADCDHISGQCTCRTGFMGRHCE; listed as Homo sapiens) has what MIC?
result: 50 µg/mL

====

test system: Enterobacter cloacae; assay: MIC against Gram-negative bacteria: Enterobacter cloacae; format: cell-based; conditions: Enterobacter cloacae; 96-well plate, 5×10^5 CFU/mL, 37° C., 10 h
Measured metric: MIC against E. cloacae (µg/mL)
Reply with just the number (in µg/mL).

{"columns": ["Substance", "MIC against E. cloacae / µg/mL"],
 "data": [
  ["PRT1257 (CMNKDHGCAHICRETPKGGVACDCRPGFDLAQNQKDC; listed as Homo sapiens)", 25],
  ["PRT1317 (APNPCWPSPCSLLAQCSVSPKGQAQCHCPENYHGDGMVCL; listed as Homo sapiens)", 12.5],
  ["PRT1275 (EGMNCMNKNHGCAHICRETPKGGIACECRPGFELTKNQRDCK; listed as Homo sapiens)", 12.5]
]}

query: Entry PRT1258 (GRTCIETCAVNNGGCDRTCKDTATGVRCSCPVGFTLQPD; listed as Homo sapiens) has what MIC against E. cloacae?
result: 12.5

query: Entry PRT1284 (LVDLCSPDLNPCQHEAQCVGTPDGPRCECMPGYAGDNCS; listed as Homo sapiens) has what MIC against E. cloacae?
result: 25

====

test system: E. coli DH5α; assay: Antibacterial activity: MIC and growth curve against E. coli DH5α in 96-well plate; type: cell-based; conditions: minimal inhibitory concentration against E. coli DH5α; 96-well plate, 5×10^5 CFU/mL, 37° C., judged after 8 h
MIC for assorted substances
Reply with just the number (in µg/mL).

Example substances with recorded MIC:
{"columns": ["Substance", "Unit label", "MIC"],
 "data": [
  ["PRT916 (QADPCASNPCANGGQCLPFEASYICHCPPSFHGPTCR; listed as Homo sapiens)", "µg/mL", 25],
  ["PRT1050 (HFSRCPKQYKHYCIKGRCRFVVAEQTPSCVCDEGYIGARCE; listed as Homo sapiens)", "µg/mL", 25],
  ["PRT772 (TIVSTESLETLAPGLCQEGQIWNGKQCVCPQGYVGYQCL; listed as Homo sapiens)", "µg/mL", 12.5],
  ["PRT64 (PCSSSPCRGGATCALGPHGKNYTCRCPQGYQLDSSQLDCV; listed as Homo sapiens)", "µg/mL", 12.5],
  ["PRT1036 (VEDKCEKACRPEEECLALNSTWGCFCRQDLNSSDVHSLQPQLDCG; listed as Homo sapiens)", "µg/mL", 25],
  ["PRT721 (DIDECTEMPFVCSQKCENVIGSYICKCAPGYLREPDGKTCR; listed as Homo sapiens)", "µg/mL", 25]
]}

query: Entry PRT1343 (VFHECFFNPCHNSGTCQQLGRGYVCLCPLGYTGLKCE; listed as Homo sapiens) has what MIC?
result: 12.5

query: Entry PRT1107 (LMPLCWSKPCHNNATCEDSVDNYTCHCWPGYTGAQCE; listed as Homo sapiens) has what MIC?
result: 12.5

FYI, the data here is from patent US9833497B2.
